Values compiled from patent US12336981B2.

assayTarget: NAMPT (Homo sapiens)
Construct: His tag; host or cells: E. coli
Sequence (P43490 whole entry): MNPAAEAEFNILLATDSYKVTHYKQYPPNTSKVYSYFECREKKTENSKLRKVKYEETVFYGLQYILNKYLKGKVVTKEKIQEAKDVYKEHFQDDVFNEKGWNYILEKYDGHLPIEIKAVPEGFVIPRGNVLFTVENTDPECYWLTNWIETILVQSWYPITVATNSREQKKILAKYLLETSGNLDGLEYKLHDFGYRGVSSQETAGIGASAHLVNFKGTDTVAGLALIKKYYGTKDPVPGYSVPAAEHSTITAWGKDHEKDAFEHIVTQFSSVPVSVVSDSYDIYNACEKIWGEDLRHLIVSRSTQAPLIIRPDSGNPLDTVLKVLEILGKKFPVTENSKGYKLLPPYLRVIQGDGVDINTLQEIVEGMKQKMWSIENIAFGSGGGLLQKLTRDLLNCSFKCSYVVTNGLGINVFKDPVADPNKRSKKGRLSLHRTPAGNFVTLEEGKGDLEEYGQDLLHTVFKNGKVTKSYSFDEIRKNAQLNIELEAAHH
testMethodNotes: Biochemical inhibition assay: NAMPT enzymatic reaction, NMN quantified by mass spectrometry
conditionParameters: NAMPT enzymatic assay; read-out: Biochem IC50
pIC50: −log10 of the molar value.
Tag: label 1 if measured pIC50 is not below 8, label 0 if it is.

>  <compoundSmiles>
Cc1cc(C)n(-c2cccc(S(=O)(=O)c3ccc(CNC(=O)c4ccc5ncsc5c4)cc3)c2)n1

>  <labelValue>
label 0

$$$$
>  <compoundSmiles>
CN(C)c1ccc(S(=O)(=O)c2ccc(CNC(=O)c3ccc4nccn4c3)cc2)cn1

>  <labelValue>
label 0

$$$$
>  <compoundSmiles>
O=C(NCc1ccc(S(=O)(=O)c2ccc(C(F)(F)F)cc2C(F)(F)F)cc1)c1cnc2nccn2c1

>  <labelValue>
label 0

$$$$
>  <compoundSmiles>
CCS(=O)(=O)c1cccc(S(=O)(=O)c2ccc(CNC(=O)c3cnc4nccn4c3)cc2)c1

>  <labelValue>
label 1

$$$$
>  <compoundSmiles>
Cn1ncc(S(=O)(=O)c2ccc(CNC(=O)c3cnc4[nH]ncc4c3)cc2)c1C(F)(F)F

>  <labelValue>
label 0

$$$$
>  <compoundSmiles>
O=C(NCc1ccc(S(=O)(=O)c2ccc(C(F)(F)F)cc2Cl)cc1)c1cc2cnccc2[nH]1

>  <labelValue>
label 0

$$$$

Input: Tell me whether pIC50 is at least 8 here: "CC(C)Oc1cc(F)ccc1S(=O)(=O)c1ccc(CNC(=O)c2cc3cnccc3[nH]2)cc1"
Output: label 0

Input: Tell me whether pIC50 is at least 8 here: "CN(C)c1ccc(S(=O)(=O)c2ccc(CNC(=O)c3cc4ccncc4s3)cc2)cn1"
Output: label 1

Input: Tell me whether pIC50 is at least 8 here: "Cc1cc(C)n(-c2cccc(S(=O)(=O)c3ccc(CNC(=O)c4cnc5nccn5c4)cc3)c2)n1"
Output: label 1

Input: Tell me whether pIC50 is at least 8 here: "O=C(NCc1ccc(S(=O)(=O)c2ccc(OC(F)(F)F)c(F)c2)cc1)c1cc2cnccc2[nH]1"
Output: label 0

Input: Tell me whether pIC50 is at least 8 here: "Cc1cc(C(F)(F)F)ccc1S(=O)(=O)c1ccc(CNC(=O)c2cc3ccncc3o2)cc1"
Output: label 0
